Recorded values, source patent US20220357332A1.

Would you kindly list Absorption λmax for each of these compounds?
- EXPERIMENTAL_DETAILS: Luminescent data (absorption, emission, quantum yield, brightness) in solvents
- Format: physicochemical
- CONDITION_SUMMARY: Acetonitrile (ϵr 37.5, viscosity 0.38 cP)
Provide only the numeric value, understood in nm.

Enquiry: Give Absorption λmax for the following compound: CCCCCOc1cc2c3cc(OCCCCC)c(OCCCCC)cc3c3c(cc(OCCCCC)c4oc(-c5ccccc5)nc43)c2cc1OCCCCC
Return: 270

Enquiry: Give Absorption λmax for the following compound: CCCCCOc1cc2c3cc(OCCCCC)c(OCCCCC)cc3c3c(cc(OCCCCC)c4oc(-c5c6ccccc6cc6ccccc56)nc43)c2cc1OCCCCC
Return: 253

Enquiry: Give Absorption λmax for the following compound: CCCCCOc1cc2c3cc(OCCCCC)c(OCCCCC)cc3c3c(cc(OCCCCC)c4oc(CCCC)nc43)c2cc1OCCCCC
Return: 281

Enquiry: Give Absorption λmax for the following compound: CCCCCOc1cc2c3cc(OCCCCC)c(OCCCCC)cc3c3c(cc(OCCCCC)c4oc(-c5ccc6ccccc6c5)nc43)c2cc1OCCCCC
Return: 273

Enquiry: Give Absorption λmax for the following compound: CCCCCOc1cc2c3cc(OCCCCC)c(OCCCCC)cc3c3c(cc(OCCCCC)c4oc(-c5cccc6ccccc56)nc43)c2cc1OCCCCC
Return: 275

Enquiry: Give Absorption λmax for the following compound: CCCCCOc1cc2c3cc(OCCCCC)c(OCCCCC)cc3c3c(cc(OCCCCC)c4oc(-c5ccc6cc7ccccc7cc6c5)nc43)c2cc1OCCCCC
Return: 270

* * *

- EXPERIMENTAL_DETAILS: Luminescent data (absorption, emission, quantum yield, brightness) in solvents
- Type: physicochemical
- CONDITION_SUMMARY: Ethyl acetate (ϵr 6.0, viscosity 0.45 cP)
Would you kindly list Emission λmax for each of these molecules?
Provide only the numeric value, understood in nm.

Enquiry: Give Emission λmax for the following molecule: CCCCCOc1cc2c3cc(OCCCCC)c(OCCCCC)cc3c3c(cc(OCCCCC)c4oc(CCCC)nc43)c2cc1OCCCCC
Return: 367

Enquiry: Give Emission λmax for the following molecule: CCCCCOc1cc2c3cc(OCCCCC)c(OCCCCC)cc3c3c(cc(OCCCCC)c4oc(-c5ccccc5)nc43)c2cc1OCCCCC
Return: 467

Enquiry: Give Emission λmax for the following molecule: CCCCCOc1cc2c3cc(OCCCCC)c(OCCCCC)cc3c3c(cc(OCCCCC)c4oc(-c5cccc6ccccc56)nc43)c2cc1OCCCCC
Return: 510

* * *

- EXPERIMENTAL_DETAILS: Luminescent data (absorption, emission, quantum yield, brightness) in solvents
- Type: physicochemical
- CONDITION_SUMMARY: Acetonitrile (ϵr 37.5, viscosity 0.38 cP)
Would you kindly list Brightness for each of these compounds?
Provide only the numeric value, understood in M⁻¹ cm⁻¹.

Enquiry: Give Brightness for the following compound: CCCCCOc1cc2c3cc(OCCCCC)c(OCCCCC)cc3c3c(cc(OCCCCC)c4oc(CCCC)nc43)c2cc1OCCCCC [Compound 1]
Return: 12

Enquiry: Give Brightness for the following compound: CCCCCOc1cc2c3cc(OCCCCC)c(OCCCCC)cc3c3c(cc(OCCCCC)c4oc(-c5ccccc5)nc43)c2cc1OCCCCC [Compound 2]
Return: 38

Enquiry: Give Brightness for the following compound: CCCCCOc1cc2c3cc(OCCCCC)c(OCCCCC)cc3c3c(cc(OCCCCC)c4oc(-c5ccc6ccccc6c5)nc43)c2cc1OCCCCC [Compound 3]
Return: 44

Enquiry: Give Brightness for the following compound: CCCCCOc1cc2c3cc(OCCCCC)c(OCCCCC)cc3c3c(cc(OCCCCC)c4oc(-c5cccc6ccccc56)nc43)c2cc1OCCCCC [Compound 4]
Return: 30
